Every entry's value here was drawn from ChEMBL document CHEMBL1150299.

- ASSAY_TEXT: Stability at -10 to 40 degC after 24 hrs by FPLC assay
- Assay type: physicochemical

| MOLECULAR_STRING | Stability |
| --- | --- |
| O=C(Oc1cc(Cl)ccc1Oc1ccc(Cl)cc1Cl)c1cccnc1 | Stable |
| Oc1cc(Cl)ccc1Oc1ccc(Cl)cc1Cl | Stable |
| CN(C)CCOC(=O)CCCC(=O)Oc1cc(Cl)ccc1Oc1ccc(Cl)cc1Cl | Stable |
